target-entity: T1, 4H2726-AA
T1 chain: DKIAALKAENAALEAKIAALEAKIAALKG
experiment-summary: two-hybrid library CCmax;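 further: natural log of median RNA to DNA barcode read ratio; higher means stronger binding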
condition: mean of both orientations
measurement-label: interaction score

Examples with their reported interaction score follow.
| binder | measurement-label | value-observed |
| --- | --- | --- |
| DKIAALEAKNAALKAKIAALEAKNAALKG [4H2536-AA] | interaction score | 1.39 |
| DKIAALEAKNAALKAENAALEAEIAALEG [4H2513-AA] | interaction score | 0.913 |
| DKIAALKAEIAALEAKNAALEAKIAALKG [4H2614-AA] | interaction score | -0.336 |
| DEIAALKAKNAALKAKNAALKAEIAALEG [4H1017-AA] | interaction score | 0.98 |
| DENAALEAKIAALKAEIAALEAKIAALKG [4H1350-AA] | interaction score | -0.0467 |

I: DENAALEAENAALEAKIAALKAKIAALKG [4H1198-AA]
II: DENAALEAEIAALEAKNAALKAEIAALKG [4H1082-AA]
Of the two listed items, which has the higher interaction score? First: I Second: II Mark your answer with the label of the selected entry.
II
